# Study target: sGC α1/β1 heterodimer (Homo sapiens, UniProt Q02108+Q02153)
# Construct: expressed in transfected cells; host or cells: CHO-K1 (clone #7, CHO-K1/sGC)
# Sequence (Q02108 1-690): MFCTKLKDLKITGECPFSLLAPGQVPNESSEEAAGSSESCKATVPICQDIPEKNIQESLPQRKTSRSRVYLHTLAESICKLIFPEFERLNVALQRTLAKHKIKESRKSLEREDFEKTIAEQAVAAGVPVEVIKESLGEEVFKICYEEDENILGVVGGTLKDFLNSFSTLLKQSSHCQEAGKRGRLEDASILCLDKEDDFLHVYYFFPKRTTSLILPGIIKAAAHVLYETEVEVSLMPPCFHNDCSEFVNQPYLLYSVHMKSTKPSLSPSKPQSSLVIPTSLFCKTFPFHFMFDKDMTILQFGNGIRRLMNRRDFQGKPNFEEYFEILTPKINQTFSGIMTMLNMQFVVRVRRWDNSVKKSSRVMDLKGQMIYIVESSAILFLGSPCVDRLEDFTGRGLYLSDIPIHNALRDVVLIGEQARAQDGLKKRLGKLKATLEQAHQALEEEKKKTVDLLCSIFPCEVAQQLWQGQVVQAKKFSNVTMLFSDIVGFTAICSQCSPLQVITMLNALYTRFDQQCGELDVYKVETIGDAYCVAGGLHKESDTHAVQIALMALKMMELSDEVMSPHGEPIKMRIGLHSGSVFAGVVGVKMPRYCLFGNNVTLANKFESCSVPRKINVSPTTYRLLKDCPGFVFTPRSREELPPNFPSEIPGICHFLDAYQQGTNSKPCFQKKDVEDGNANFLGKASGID
# Sequence (Q02153 1-619): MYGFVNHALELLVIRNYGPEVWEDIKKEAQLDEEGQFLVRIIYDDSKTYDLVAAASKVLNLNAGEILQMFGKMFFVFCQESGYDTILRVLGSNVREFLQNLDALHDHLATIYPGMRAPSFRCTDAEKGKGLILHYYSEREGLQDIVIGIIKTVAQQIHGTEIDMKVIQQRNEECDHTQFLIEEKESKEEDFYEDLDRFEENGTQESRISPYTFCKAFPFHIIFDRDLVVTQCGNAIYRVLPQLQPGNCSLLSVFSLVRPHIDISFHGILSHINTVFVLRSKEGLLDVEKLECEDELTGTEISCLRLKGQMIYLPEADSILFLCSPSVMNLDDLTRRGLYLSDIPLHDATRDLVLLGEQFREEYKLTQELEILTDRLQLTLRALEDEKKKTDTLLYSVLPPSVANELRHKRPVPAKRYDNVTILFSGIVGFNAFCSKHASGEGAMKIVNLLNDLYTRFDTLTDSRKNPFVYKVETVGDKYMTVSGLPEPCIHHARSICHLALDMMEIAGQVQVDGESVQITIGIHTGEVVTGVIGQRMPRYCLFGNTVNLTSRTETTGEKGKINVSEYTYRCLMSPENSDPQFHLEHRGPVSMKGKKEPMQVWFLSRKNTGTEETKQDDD
# Protocol notes: Cell-based sGC functional assay (CASA assay): cGMP generation in CHO-K1/sGC cells, HTRF detection
# Experimental conditions: CHO-K1, percent activation relative to standard Compound A in CHO-K1/sGC cells; read-out: % Act.
# Protocol: Biological Assay 1: Cell-Based sGC Functional Assay (CASA Assay) sGC is a heme-containing enzyme that converts GTP to secondary messenger cGMP. […] A CHO-K1 cell line stably expressing the sGC α1/β1 heterodimer was generated using a standard transfection protocol. […] The level of intracellular cGMP was determined using an HTRF-based assay kit (CisBio, 62GM2PEC), which detects the displacement of a fluorescence labeled cGMP from its specific antibody. […]
Below: a set of entries, each annotated with reported Emax.
Give the quantity in %, number only.

INSERT INTO measurements (molecule, study_target, readout_label, quantitative_result) VALUES
  ('CC1(c2ccc(F)cc2)C(=O)Nc2nc(-c3cn4cc(C(F)(F)F)nc4c(Cc4ccc(F)cc4)n3)nc(N)c21 (stereo not shown) [Example 155A]', 'sGC α1/β1 heterodimer (Homo sapiens, UniProt Q02108+Q02153)', 'Emax', 112);

So for Nc1nc(-c2cn3ccnc3c(CCCC(F)(F)F)n2)nc2c1C(c1ccc(Cl)cc1F)(C1CC1)C(=O)N2 (stereo not shown) [Example 339A] , the logged Emax turned out to be 325

The molecule listed as CC(C)CCc1nc(-c2nc(N)c3c(n2)NC(=O)C3(C)c2ccc(F)cn2)cn2ccnc12 (stereo not shown) [Example 11B] has a reported Emax of 135

Note to self: Emax recorded for CC1(C(=O)NC2CC2)C(=O)Nc2nc(-c3cn4cc(C(F)(F)F)nc4c(Cc4ccccc4F)n3)nc(N)c21 (stereo not shown) [Example 47B] was 118
